# Lookup of reported pKd keyed by entry
TARGET OR TEST SYSTEM: T1, RHPN1, Q8TCX5
T1 sequence (Q8TCX5 508-602, limits assumed, looked up): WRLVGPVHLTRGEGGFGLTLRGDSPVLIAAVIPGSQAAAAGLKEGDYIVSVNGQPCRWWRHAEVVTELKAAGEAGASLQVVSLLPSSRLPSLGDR
ASSAY PROTOCOL: holdup assay
Design: key: below the threshold = too weak to quantify, mostly under pKd 3.1 to 4
ASSAY SETUP: plain residues with an end cap or a label only (N-terminal biotin on a linker: ttds)
METRIC: pKd

{"columns": ["BINDER", "METRIC", "DATA VALUE"],
 "data": [
  ["VDFPPKESSL [ACVR2A, P27037]", "pKd", 3.97],
  ["QRQARSETLV [HPV59-E6, Q81964]", "pKd", 3.94],
  ["RHTTSTETAV [HPV30-E6, P36809]", "pKd", 4.08]
]}
